Measured log10 of IC50, listed per entry.
- Tested on: GM1 production in Jurkat cells
- METHOD_NOTES: cells
- Type: cell-based
- CONDITION_LABEL: Homo sapiens, Jurkat, 72 h
Record value = log10 of IC50 given in nM.

# count of solved cases: 5
CCCc1ccc(-c2ccc3c(c2)CC(C)(C)C3NC(=O)O[C@@H]2CN3CCC2CC3)cc1 (some centres unmarked) :: 1.09
CC(C)Oc1ccc(-c2ccc3c(c2)CC(C)(C)C3NC(=O)O[C@@H]2CN3CCC2CC3)cn1 (some centres unmarked) :: 1.37
CCc1cccc(-c2ccc3c(c2)CC(CC)(CC)C3NC(=O)O[C@@H]2CN3CCC2CC3)c1 (some centres unmarked) :: 0.89
CCC1(CC)Cc2cc(-c3ccc(C(C)(C)C)cc3)ccc2C1NC(=O)O[C@@H]1CN2CCC1CC2 (some centres unmarked) :: 0.86
CC1(C)Cc2ccc(-c3cccc(Cl)c3)cc2C1NC(=O)O[C@@H]1CN2CCC1CC2 (some centres unmarked) :: 2.21

Kindly note the recorded log10 of IC50 for CCCOc1ccc(-c2ccc3c(c2)CC(CC)(CC)C3NC(=O)O[C@@H]2CN3CCC2CC3)cc1 (some centres unmarked) , which is 0.57

Kindly note the recorded log10 of IC50 for O=C(NC1CCc2cc(-c3ccc(OC(F)F)cc3)ccc21)O[C@@H]1CN2CCC1CC2 (some centres unmarked) , which is 1.73

Kindly note the recorded log10 of IC50 for COc1ccc(-c2cc3c(cc2F)C(NC(=O)O[C@@H]2CN4CCC2CC4)C(C)(C)C3)cc1 (some centres unmarked) , which is 1.80

----------
Measured IC50, listed per entry.
- Tested on: GM1 production in Jurkat cells
- METHOD_NOTES: cells
- Assay type: cell-based
- CONDITION_LABEL: Homo sapiens, Jurkat, 72 h
A number alone suffices; assume nM.

Entry CCOc1ccc(-c2ccc3c(c2)CC(C)(C)C3NC(=O)O[C@@H]2CN3CCC2CC3)cc1F (stereo partly shown) ; assay system GM1 production in Jurkat cells; IC50 recorded at 22.6

Entry CC(C)(C)c1ccc(-c2cc3c(cc2F)C(NC(=O)O[C@@H]2CN4CCC2CC4)C(C)(C)C3)cc1 (stereo partly shown) ; assay system GM1 production in Jurkat cells; IC50 recorded at 12.7

----------
- Test system: GM1 production in Jurkat cells
- METHOD_NOTES: cells
- Type: cell-based
- CONDITION_LABEL: Homo sapiens, Jurkat, 72 h
REPORTED_METRIC: IC50 (nM)
A number alone suffices; assume nM.

# count of solved cases: 2
CCCOc1c(C)cc(-c2cc3c(cc2OC)C(NC(=O)O[C@@H]2CN4CCC2CC4)C(C)(C)C3)cc1C (stereo partly shown) :: 31.9
CCC1(CC)Cc2cc(-c3ccc(F)cc3)ccc2C1NC(=O)O[C@@H]1CN2CCC1CC2 (stereo partly shown) :: 33.2

Entry COc1cc(OC)cc(-c2ccc3c(c2)CC(C)(C)C3NC(=O)O[C@@H]2CN3CCC2CC3)c1 (stereo partly shown) ; assay system GM1 production in Jurkat cells; IC50 recorded at 9.8

Entry COc1ccc(-c2ccc3c(c2)CC(C)(C)C3NC(=O)O[C@@H]2CN3CCC2CC3)c(OC)c1 (stereo partly shown) ; assay system GM1 production in Jurkat cells; IC50 recorded at 26.3

Entry CC(C)Oc1ccc(-c2ccc3c(c2)CC(C)(C)C3NC(=O)O[C@@H]2CN3CCC2CC3)cc1F (stereo partly shown) ; assay system GM1 production in Jurkat cells; IC50 recorded at 32.1

Entry COc1ccc(OC)c(-c2ccc3c(c2)CC(C)(C)C3NC(=O)O[C@@H]2CN3CCC2CC3)c1 (stereo partly shown) ; assay system GM1 production in Jurkat cells; IC50 recorded at 3.8

Entry CC(=O)c1sccc1-c1ccc2c(c1)CC(C)(C)C2NC(=O)O[C@@H]1CN2CCC1CC2 (stereo partly shown) ; assay system GM1 production in Jurkat cells; IC50 recorded at 49.3

Entry CC1(C)Cc2cc(-c3cc(F)cc(C(F)(F)F)c3)ccc2C1NC(=O)O[C@@H]1CN2CCC1CC2 (stereo partly shown) ; assay system GM1 production in Jurkat cells; IC50 recorded at 14.7

Entry CCc1ccc(-c2ccc3c(c2)CC(C)(C)C3NC(=O)O[C@@H]2CN3CCC2CC3)cc1 (stereo partly shown) ; assay system GM1 production in Jurkat cells; IC50 recorded at 14

Entry CCOc1cc(-c2ccc3c(c2)CC(C)(C)C3NC(=O)O[C@@H]2CN3CCC2CC3)ccn1 (stereo partly shown) ; assay system GM1 production in Jurkat cells; IC50 recorded at 34.9

Entry CCCCOc1ccc(-c2ccc3c(c2)CC(C)(C)C3NC(=O)O[C@@H]2CN3CCC2CC3)cc1Cl (stereo partly shown) ; assay system GM1 production in Jurkat cells; IC50 recorded at 26.3

Entry CC1(C)Cc2cc(-c3ccccc3F)ccc2C1NC(=O)O[C@@H]1CN2CCC1CC2 (stereo partly shown) ; assay system GM1 production in Jurkat cells; IC50 recorded at 12.2

Entry CC1(C)Cc2ccc(-c3cc(Cl)ccc3Cl)cc2C1NC(=O)O[C@@H]1CN2CCC1CC2 (stereo partly shown) ; assay system GM1 production in Jurkat cells; IC50 recorded at 64.3

Entry CCCOc1ccc(-c2cc3c(cc2F)C(NC(=O)O[C@@H]2CN4CCC2CC4)C(C)(C)C3)cc1 (stereo partly shown) ; assay system GM1 production in Jurkat cells; IC50 recorded at 5.3

Entry O=C(NC1CCc2ccc(-c3ccc(F)c(F)c3)cc21)O[C@@H]1CN2CCC1CC2 (stereo partly shown) ; assay system GM1 production in Jurkat cells; IC50 recorded at 51.9

Entry CCOc1cc(C(F)(F)F)ccc1-c1ccc2c(c1)CC(C)(C)C2NC(=O)O[C@@H]1CN2CCC1CC2 (stereo partly shown) ; assay system GM1 production in Jurkat cells; IC50 recorded at 33

----------
Measured log10 of IC50, listed per entry.
- System: GM1 production in Jurkat cells
- METHOD_NOTES: cells
- Type: cell-based
- CONDITION_LABEL: Homo sapiens, Jurkat, 72 h
Record value = log10 of IC50 given in nM.

# count of solved cases: 5
CC1(C)Cc2cc(-c3ccc4c(c3)CCCO4)ccc2C1NC(=O)O[C@@H]1CN2CCC1CC2 (some centres unmarked) :: 1.00
COc1ccc(-c2ccc3c(c2)CC(C)(C)C3NC(=O)O[C@@H]2CN3CCC2CC3)c(F)c1 (some centres unmarked) :: 1.26
CCOc1ccc(-c2cc3c(cc2F)C(NC(=O)O[C@@H]2CN4CCC2CC4)C(C)(C)C3)cc1F (some centres unmarked) :: 1.68
CCC1(CC)Cc2cc(-c3ccc(CC(C)C)cc3)ccc2C1NC(=O)O[C@@H]1CN2CCC1CC2 (some centres unmarked) :: 0.61
O=C(NC1CCc2ccc(-c3ccc(OC(F)F)cc3)cc21)O[C@@H]1CN2CCC1CC2 (some centres unmarked) :: 1.74

Entry O=C(NC1CCc2cc(-c3ccc(F)c(F)c3)ccc21)O[C@@H]1CN2CCC1CC2 (some centres unmarked) ; assay system GM1 production in Jurkat cells; log10 of IC50 recorded at 1.54

Entry CCc1ccccc1-c1ccc2c(c1)CC(C)(C)C2NC(=O)O[C@@H]1CN2CCC1CC2 (some centres unmarked) ; assay system GM1 production in Jurkat cells; log10 of IC50 recorded at 1.63

Entry O=C(NC1CCc2cc(-c3ccc(Cl)c(Cl)c3)ccc21)O[C@@H]1CN2CCC1CC2 (some centres unmarked) ; assay system GM1 production in Jurkat cells; log10 of IC50 recorded at 1.80

----------
Measured IC50, listed per entry.
- System: GM1 production in Jurkat cells
- METHOD_NOTES: cells
- Format: cell-based
- CONDITION_LABEL: Homo sapiens, Jurkat, 72 h

# count of solved cases: 3
O=C(NC1CCc2ccc(-c3cccc(OC(F)(F)F)c3)cc21)O[C@@H]1CN2CCC1CC2 (stereo partly shown) [Example 32] :: 120 nM
CCOc1ccc(-c2ccc3c(c2)CC(CC)(CC)C3NC(=O)O[C@@H]2CN3CCC2CC3)cc1 (stereo partly shown) [Example 284] :: 8.5 nM
CC1(C)Cc2cc(-c3ccc4c(c3)OCCO4)ccc2C1NC(=O)O[C@@H]1CN2CCC1CC2 (stereo partly shown) [Example 112] :: 35.6 nM

Could you now consider this next compound?
Kindly note the recorded IC50 for Cc1cc(F)cc(-c2ccc3c(c2)CC(C)(C)C3NC(=O)O[C@@H]2CN3CCC2CC3)c1 (stereo partly shown) [Example 219] , which is 30.4 nM

----------
- System: GM1 production in Jurkat cells
- METHOD_NOTES: cells
- Format: cell-based
- CONDITION_LABEL: Homo sapiens, Jurkat, 72 h
REPORTED_METRIC: IC50 (nM)
A number alone suffices; assume nM.

CC(C)(C)c1ccc(-c2ccc3c(c2)CC(C)(C)C3NC(=O)O[C@@H]2CN3CCC2CC3)cc1 (some centres unmarked) [Example 146] :: 14.1
CCCOc1c(C)cc(-c2ccc3c(c2)CC(C)(C)C3NC(=O)O[C@@H]2CN3CCC2CC3)cc1C (some centres unmarked) [Example 173] :: 34.8
CC1(C)Cc2ccc(-c3cc(Cl)cc(Cl)c3)cc2C1NC(=O)O[C@@H]1CN2CCC1CC2 (some centres unmarked) [Example 69] :: 400

Entry O=C(NC1CCc2cc(-c3cccc(Cl)c3)ccc21)O[C@@H]1CN2CCC1CC2 (some centres unmarked) [Example 6] ; assay system GM1 production in Jurkat cells; IC50 recorded at 39.4

Entry Cc1cccc(-c2ccc3c(c2)CC(C)(C)C3NC(=O)O[C@@H]2CN3CCC2CC3)c1F (some centres unmarked) [Example 243] ; assay system GM1 production in Jurkat cells; IC50 recorded at 21.4

Entry CCC1(CC)Cc2cc(-c3ccsc3)ccc2C1NC(=O)O[C@@H]1CN2CCC1CC2 (some centres unmarked) [Example 306] ; assay system GM1 production in Jurkat cells; IC50 recorded at 27.5

Entry COCOc1ccc(-c2ccc3c(c2)CC(C)(C)C3NC(=O)O[C@@H]2CN3CCC2CC3)cc1 (some centres unmarked) [Example 100] ; assay system GM1 production in Jurkat cells; IC50 recorded at 21.5

Entry COc1cccc(-c2ccc3c(c2)CC(C)(C)C3NC(=O)O[C@@H]2CN3CCC2CC3)c1F (some centres unmarked) [Example 231] ; assay system GM1 production in Jurkat cells; IC50 recorded at 24.3
